# System: SK-MEL-28
# Assay info: SRB colorimetric assay of cell growth and viability, SK-MEL-28
# Format: cell-based, human
# Condition context: 48 hours exposure; read-out: LC50 MEL-28
# Procedure: The finality of this assay is to interrupt the growth of a “in vitro” tumor cell culture by means a continued exhibition of the cells to the sample to be testing. […] Cells are seeded in 96 well microtiter plates, at 5×10^3 cells per well in aliquots of 195 μL medium, and they are allowed to attach to the plate surface by growing in drug free medium for 18 hours. […] Optical densities are read on a automated spectrophotometric plate reader at a single wavelength of 490 nm. […]
Where a SMILES comes first, the peptide text is derived from it. Bridges are numbered along the chain shown (N, C = ends). [ ]: non-standard residue; d: D form. The star is where a group is joined. d(aIle) = CC[C@H](C)[C@@H](N)C(=O)O; d(aThr) = C[C@@H](O)[C@@H](N)C(=O)O; Hexanoyl(5-Me) = CC(C)CCCC(=O)*; dCha = N[C@H](CC1CCCCC1)C(=O)O; Orn = NCCC[C@H](N)C(=O)O; Dhb = C/C=C(\N)C(=O)O
Property: CC50 (µM)
The answer is to be given in µM; state only the numeric part.

As a guide, the following entries are already answered.
INSERT INTO results (molecule, property, reported_measurement) VALUES
  ('C/C=C1\NC(=O)[C@H](Cc2ccccc2)NC(=O)[C@@H](CC2CCCCC2)NC(=O)[C@@H](CC2CCCCC2)NC(=O)[C@H](NC(=O)[C@@H](CC2CCCCC2)NC(=O)[C@H](CCCN)NC(=O)[C@H]2CCCN2C(=O)[C@H](NC(=O)[C@@H](NC(=O)[C@@H](NC(=O)[C@H](NC(=O)CCCC(C)C)C(C)C)[C@@H](C)O)C(C)C)C(C)C)[C@@H](C)OC(=O)[C@H](C(C)C)NC1=O [Compound 11, [D-Cha^4, D-Cha^5, D-Cha^7]-KF] ({Hexanoyl(5-Me)}-[dV]TV[dV][dP][Orn][dCha][d(aThr)][dCha][dCha]F[Dhb]V; ester 8-C)', 'CC50', 3.03),
  ('C/C=C1\NC(=O)[C@H](Cc2ccccc2)NC(=O)[C@@H](C(C)C)NC(=O)[C@@H]([C@@H](C)CC)NC(=O)[C@H](NC(=O)[C@H](NC(=O)[C@H](CCCN)NC(=O)[C@H]2CCCN2C(=O)[C@H](NC(=O)[C@@H](NC(=O)[C@@H](NC(=O)[C@H](NC(=O)CCCCC(C)(F)F)C(C)C)[C@@H](C)O)C(C)C)C(C)C)[C@@H](C)CC)[C@@H](C)OC(=O)[C@H](C(C)C)NC1=O [Compound 28, [6,6-dFHep^14]-KF]', 'CC50', 4.41),
  ('C/C=C1\NC(=O)[C@H](Cc2ccccc2)NC(=O)[C@@H](C(C)C)NC(=O)[C@@H]([C@@H](C)CC)NC(=O)[C@H](NC(=O)[C@H](NC(=O)[C@H](CCCN)NC(=O)[C@H]2CCCN2C(=O)[C@H](NC(=O)[C@@H](NC(=O)[C@@H]2CCCN2C(=O)CCCC(C)C)C(C)C)C(C)C)[C@@H](C)CC)[C@@H](C)OC(=O)[C@H](C(C)C)NC1=O [Compound 55, [Pro^12, noD-Val^13]-KF] ({Hexanoyl(5-Me)}-PV[dV][dP][Orn][d(aIle)][d(aThr)][d(aIle)][dV]F[Dhb]V; ester 7-C)', 'CC50', 7.27),
  ('C/C=C1\NC(=O)[C@H](Cc2ccccc2)NC(=O)[C@@H](C(C)C)NC(=O)[C@@H]([C@@H](C)CC)NC(=O)[C@H](NC(=O)[C@H](NC(=O)[C@H](CCCN)NC(=O)[C@H]2CCCN2C(=O)[C@H](NC(=O)[C@@H](NC(=O)[C@@H](NC(=O)[C@@H](Cc2ccccc2)NC(=O)CCCC(C)C)[C@@H](C)O)C(C)C)C(C)C)[C@@H](C)CC)[C@@H](C)OC(=O)[C@H](C(C)C)NC1=O [Compound 36, [D-Phe^13]-KF]', 'CC50', 2.2);

Below: the item to evaluate.
Q) Quote SK-MEL-28 CC50 for entry C/C=C1\NC(=O)[C@H](Cc2ccccc2)NC(=O)[C@@H](C(C)C)NC(=O)[C@@H]([C@@H](C)CC)NC(=O)[C@H](NC(=O)[C@H](NC(=O)[C@H](CCCN)NC(=O)[C@H]2CCCN2C(=O)[C@H](NC(=O)[C@@H](NC(=O)[C@@H](NC(=O)[C@H](NC(=O)CCCCCCC)C(C)C)[C@@H](C)O)C(C)C)C(C)C)[C@@H](C)CC)[C@@H](C)OC(=O)[C@H](C(C)C)NC1=O [Compound 18, [Oct^14]-KF] .
A) 1.68

The reported measurements were obtained from patent US20070117743A1.
